# protocolSummary: soluble on expression in E. coli; label from the status in PepcDB or PDB records

sequence | soluble on expression in E. coli
MGSDKIHHHHHHMKAPEGIACGKRQLVVSDTGGGRLLSYSIENGSVRGGTEIKAEQVPYPTKVQLTSKGEILVIDGKLRRIAHFSPEGSFAGYLDLKGVPAPATIAPRGIRVDDKDNIHILDIFGARVIVTDAAGTFQSQMPFPEGYRFISDLAVSASGTTLLLDSVASRVYAAARGETAFKPLTDGMKEYLQFPTSIATDKQGKIFILDQTGNAVVTLGQDGSFQGRQLNIGWKNSFLHYPSQLCISEENDIDVVIADRNNNRIQVFRVVR | not soluble
MSKLFSEYKLKDVTLKNRIVMSPMCMYSVENKDGIATDFHFAHYVSRAAGGTGLVILEATAVQEVGRISEFDLGLWNDEQVPALKKLVGGLHYHGAKAGIQLAHAGRKAVLPGEIVAPSAIAFDEKSDKPVELTKEAIKEVVADFKRAAYRAKEAGFDVIEIHAAHGYLIHQFLSPITNRREDNYGGPAGNRYKILSDIIKAVKEVWDGPIIVRVSATDYAHGGLQLEDHIPFAKWMKADGVELIDVSTGGLVNVAPPVFPGYQVPFADEIRRGAGIATGALGLITRGEQAEEILCNERADLIIVGRELLRNPYFAKDAAKQLGETIEAPKQYSRAWK | not soluble
MNRRVVIVTAVHGPSAPFLPEAYASLCAQELPDGWEWRWVIQEDGRTQDVRPHVPDDPRVVFHQGRHGRQGGPGVARTMALAHADGAYVKVLDADDRLTPGALARDLAALEADPSIGWATSRVLDLLPDGSTAGFPGDPAHGPIERGEVLDFWRANGFRAQVHPATLLVRRDLLLAVGGWMALPASEDTGLLLALNCVSRGWFTEDVGLLYRKWEGQETGQASHVDPAERDARMTVVEARARALASFGWRLPEGTGDFDHLEHHHHHH | not soluble
MGSDKIHHHHHHMSVTNVTREELWAKQHLSCKNMDYAVWERDKSMLQKLSRINGGCSFVVDVYKGCYAYASTGFVDWLGYDRHKIETLEKQGDYLESRIHPHDRSQLEDLQVRLGKFIYNQPFEHRNDYCNVYSFRILNARGNYVRVTSRHQVLEQSHDGKAWLIIGNMSMAPGQKESEQVECTVLNLRNGEMFSPGVVIMNPAFGLTGREMEILRLIQRGFLSKEIADKLCISIHTVHIHRQNLLRKLGVQNSLEAIRLGQESGLLS | not soluble
MSLKIGIIGASGKAGNEILKEAKKRGHEVTAIVRNASKVQEQDVAILEKDVFELTAEDIKPFDAVVNAFGAAPGQEHLHVEAGRALISILKDAKHTRLLVVGGAGSLFVDEAKTTRLMDTPEFPKEYLPTASNQGENLKDLQQTDSISWTFLSPAAFFDPAGKRTGSYQKGKDNVIVNAKGDSYISYADYAIAVLDELEHPEHKNERFTVVSEAEEGGSHHHHHH | soluble
MSKNDTEKILLDDLLFLQRAPYYESFSVYKIDSNKYIENENDSHIDRWLSMAVSGDDKTEAPTEFVIEPGGCLISLVVDRRLISLY | not soluble
MKSHKMMGGGISMHYITACLKIISDKDLNEIMKEFKKLEEETNKEEGCITFHAYPLEPSERKIMLWEIWENEEAVKIHFTKKHTIDVQKQELTEVEWLMKSNVND | soluble
ESNDSGIVVYNAQHENLVKSWVDGFTKDTGIKVTLRNGGDSELGNQLVQEGSASPADVFLTENSPAMVLVDNAKLFAPLDAVTQAQVAQEYRPEHGRWTGIAARSTVFVYNPEKISEAELPKSIMDLAKPEWKGRWAASPSGADFQAIVSAMLELKGEKATLEWLKAMKTNFTAYKGNSTVMKAVNAGQIDGGVIYHYYRFVDQAKTGENSGKTQLHYFKHQDPGAFVSISGGGVLASSKHPKEAQEFVKWITGKSGQDILRTNNAFEYAVGVDAASNPKLVPLKDLDAPKVEPSKLNSKKVVELMTEAGLL | soluble
MKKWAVWLCSLLLLLPLSACTNDGGQSEKPLKKVRLAEVTHSIFYAPQYVALAKGFFKEEGLDVELTTTWGGDKTMTTLLSGGADIALVGSETSIYVYSQGTDDPVINFAQLTQTDGTFLVSRKKIGHFTWEMLKGSTFLGQRKGGMPQMVGEFVLKKHGIDPHQDLKLIQNVDFANIANAFASGTGDFVQLFEPTASLFEQEGKGYIVASFGTESGRVPYTSYMAKRSYMNENKDVIEKFTRAIYKAQQWVESHSAAEIAKAIQPYFKDTDSAIIEKVVERYKSQGTYATDPILDEEEWNNLQTIMAEAGELPKRIDLNTLVDSSFAKNAMND | not soluble
MPLGLGRRKKAPPLVENEEAEPGRGGLGVGEPGPLGGGGSGGPQMGLPPPPPALRPRLVFHTQLAHGSPTGRIEGFTNVKELYGKIAEAFRLPTAEVMFCTLNTHKVDMDKLLGGQIGLEDFIFAHVKGQRKEVEVFKSEDALGLTITDNGAGYAFIKRIKEGSVIDHIHLISVGDMIEAINGQSLLGCRHYEVARLLKELPRGRTFTLKLTEPRKAFDMISQRSAGGRPGSGPQLGTGRGTLRLRSRGPATVEDLPSAFEEKAIEKVDDLLESYMGIRDTELAATMVELGKDKRNPDELAEALDERLGDFAFPDEFVFDVWGAIGDAKVGRYLEHHHHHH | not soluble
MPYPKKVTIKEVGPRDGLQNEPVWIATEDKITWINQLSRTGLSYIEITSFVHPKWIPALRDAIDVAKGIDREKGVTYAALVPNQRGLENALEGGINEACVFMSASETHNRKNINKSTSESLHILKQVNNDAQKANLTTRAYLSTVFGCPYEKDVPIEQVIRLSEALFEFGISELSLGDTIGAANPAQVETVLEALLARFPANQIALHFHDTRGTALANMVTALQMGITVFDGSAGGLGGCPYAPGSSGNAATEDIVYMLEQMDIKTNVKLEKLLSAAKWIEEKMGKPLPSRNLQVFKSSLEHHHHHH | soluble
PNFSHWGPPRIVEIFREPNVSLGISIVGGQTVIKRLKNGEELKGIFIKQVLEDSPAGKTNALKTGDKILEVSGVDLQNASHSEAVEAIKNAGNPVVFIVQSLSSTPRVIP | soluble
